The measurements presented in this section are drawn from the Immune Epitope Database (IEDB).

target: HLA-A*03:01; assay: IEDB peptide-MHC binding, purified MHC/competitive/radioactivity; filed as Kd, often an IC50 or EC50 that approximates it; bounds were set here for any values at or beyond the usual limits of such assays; details: source organism: Vaccinia virus WR
attribute_measured: pKd
pKd here: minus log base 10 of the concentration, concentration in moles per litre.

What pKd value was documented for this sequence, NIISRTRLY ?
6.43

Consider the sequence shown here: MSHLKVALYR What is its recorded pKd?
6.22

Would you mind telling me what pKd value was observed for NVKHTSVSAK ?
6.28

// pKd lookup, key: QMRTPLHKY
6.85

Data request, read-out pKd, for YIIRRSGCR
4.98

If you can, please state the reported pKd value of SFIISTLNK .
7.24

What does the record list as pKd for ISYCRAFIY ?
8.84

Form field: reported pKd of LMHPDFCKNR
4.87

GET /values?readout=pKd&item= ETAKVIKLVK
5.79

Requested read-out: pKd. Entry: SLIKTILASY
7.01

Report pKd for YTLFQQTGR please.
5.51

Return reported pKd; argument: IVQLPKRGVR
4.80

Give its pKd value. Item: SLFYTFAISY
8.44

---

biological target: HLA-B*40:01; assay: IEDB peptide-MHC binding, purified MHC/competitive/radioactivity; filed as Kd, often an IC50 or EC50 that approximates it; bounds were set here for any values at or beyond the usual limits of such assays; details: source organism: SARS coronavirus Tor2
Lab note: anything with Kd below 1000 nM is marked 1; values at 1000 nM or higher are marked 0.

Strictly below 1000 nM in Kd? REEAIRHVRA
1

Lab note: confirm whether the reported Kd for this sequence is below 1000 nM, equality not counting. sequence: IDFYLCFLAF
1

A record lists RELHLSWEVG . Is its Kd below 1000 nM?
1

Say whether its Kd is strictly beneath 1000 nM. Entry: AEVQIDRLIT
0

Hi there! Is Kd for MEAQFLYLYA below 1000 nM, do you know?
0

is_below(Kd, 1000 nM) for FELLNAPAT ?
0

---

target: HLA-A*26:01; assay: IEDB peptide-MHC binding, purified MHC/competitive/radioactivity; filed as Kd, often an IC50 or EC50 that approximates it; bounds were set here for any values at or beyond the usual limits of such assays; settings: source organism: SARS coronavirus Tor2
pKd: −log10 of the molar value.
attribute_measured: pKd

Form entry - test system: HLA-A*26:01; read-out: pKd; sequence: FYLCFLAFLL
≤ 4.16

# returns recorded pKd (system: HLA-A*26:01) for KFADDLNQM
≤ 4.35

Reported pKd for HLA-A*26:01, given KWDLIISDMY ?
≤ 4.68

// map VWLGFIAGL to recorded pKd (system: HLA-A*26:01)
≤ 4.11

Request: pKd, test system HLA-A*26:01, entry KIEELFYSY
≤ 4.09

Requested read-out pKd, target or system HLA-A*26:01, entry DPAKAYKDY
≤ 4.07

---

Please go through the items and note down their Kd.
target: HLA-A*02:02; assay: IEDB peptide-MHC binding, purified MHC/competitive/radioactivity; filed as Kd, often an IC50 or EC50 that approximates it; bounds were set here for any values at or beyond the usual limits of such assays; conditions: source organism: Vaccinia virus WR
Number in µM, nothing else.

Suppose we examine the sequence QLSNNKYVL ; what Kd value has been reported?
0.0785

Quick check: Kd of ETMYLTMKAI ?
1.32

Dear colleague, I am looking for the recorded Kd of the following sequence: YAVLSEYETM
0.157

For NIREGTHVLL , what is its reported Kd?
8.88

Need Kd of VATFRDMLL , thanks.
2.53

Need Kd of LALWDSNFFT , thanks.
11

Quick check: Kd of LTHGADPNA ?
19.4

---

molecular target: HLA-A*02:02; test: IEDB peptide-MHC binding, purified MHC/competitive/radioactivity; filed as Kd, often an IC50 or EC50 that approximates it; bounds were set here for any values at or beyond the usual limits of such assays; conditions: source organism: Vaccinia virus WR
Assign labels as follows, please: 1 for Kd below 700 nM; 0 for Kd equal to or exceeding 700 nM.

Does the reported Kd of PIIYSKAGNI stay below 700 nM?
1

Would you kindly verify if Kd of ELLEMKYAL is strictly less than 700 nM?
0

Check if Kd falls below 700 nM for TAEQLSKYV .
0

Quick check: Kd of AAAATCALV under 700 nM?
1

Below 700 nM on Kd? Entry MAFILGIIIT
0

Is 700 nM strictly greater than the sequence's reported Kd? sequence: FVYVSVMNFI
1

I wonder whether KQIMECSRML has Kd below 700 nM. Can you tell?
1

Consider the sequence KINPLLDEPL . Is its Kd strictly less than 700 nM?
1

Would you kindly verify if Kd of AVTLNRIKI is strictly less than 700 nM?
0

Does the reported Kd of the following sequence sit strictly below 700 nM? GTIILNKIV
0

Does the reported Kd of the following sequence sit strictly below 700 nM? ILLILSCIFA
1

---

target: HLA-A*02:06; test: IEDB peptide-MHC binding, purified MHC/competitive/radioactivity; filed as Kd, often an IC50 or EC50 that approximates it; bounds were set here for any values at or beyond the usual limits of such assays; conditions: source organism: Vaccinia virus WR
Exercise: state measured pKd for each of the sequences provided.
As a rule, pKd stands for the negative log10 of the concentration, concentration in M.

Please give the measured pKd for this sequence: LLEMKYALI
4.83

# lookup: pKd of EATFIDVHI
5.46

Entry under review: AAAATCALV . Reported pKd?
7.90

Fill blank: measured pKd of the sequence ILLILSCIFA is ____.
6.31

What does the record list as pKd for GTIILNKIV ?
5.84

Which pKd value belongs to TISGNIYSA ?
6.75

Fill blank: measured pKd of the sequence DVDMDFDLNI is ____.
5.24

Bench note: what pKd did ELLEMKYAL show?
5.22

Given YIEDELRRA , state its recorded pKd.
5.91

Quick one: pKd for YAVLSEYETM ?
5.92

Give its pKd value. Item: YVEHDPRLVA
4.92

Which pKd value belongs to ETQSGALEVL ?
5.80

Endpoint output: pKd of AVTLNRIKI . Value?
5.12

Entry under review: PIIYSKAGNI . Reported pKd?
6.14

# get_value(readout='pKd', item= KQIMECSRML )
7.23

// pKd lookup, key: YIRRNMINKL
5.06

I would be grateful if you could share the reported pKd for KINPLLDEPL .
7.73

Name the recorded pKd for IMAFILGIII .
5.50

Quick one: pKd of VILPDKIDGL ?
6.62

Record request: pKd value, item ALALEQYGI
6.26

Query: pKd; subject: ILFILFFAYV
5.92

Param item = QLSNNKYVL ; retrieve measured pKd.
4.97

GET /values?readout=pKd&item= SINITPDDGL
9.46

Param item = MMNITRLEVI ; retrieve measured pKd.
6.87

Record request: pKd value, item VATFRDMLL
5.11

Request the reported pKd associated with MAFILGIIIT
4.99

Fill blank: measured pKd of the sequence ETMYLTMKAI is ____.
5.45

Any idea what pKd was measured for ATFRDMLLNV ?
8.52

Item TLVPVLEKKV has what recorded pKd?
6.30

Field request: pKd | item: DMLKLFTHDI
5.53

// query pKd value for entry KVIKLVKSLV
5.67

Dear colleague, I am looking for the recorded pKd of the following sequence: YTEAAAATCA
5.15

Which pKd value belongs to STSNVITDQT ?
4.97

// query pKd value for entry LALWDSNFFT
5.90

Which measured pKd value corresponds to YLGHSAGFTA ?
6.84

Would you mind telling me what pKd value was observed for ELAYYNSCM ?
5.45

---

target: HLA-B*51:01; test: IEDB peptide-MHC binding, purified MHC/competitive/radioactivity; filed as Kd, often an IC50 or EC50 that approximates it; bounds were set here for any values at or beyond the usual limits of such assays; settings: source organism: Vaccinia virus WR
Provide the reported Kd of each item.

Please look up its Kd: NPNCLEWLRA
≥ 69.6 µM

# Kd lookup, item AFEFINSLLK
≥ 69.6 µM

Reported Kd, sequence KPVIVPDIKL : ____
≥ 69.6 µM

What measured Kd goes with EPEKDIRELL ?
≥ 51 µM

---

target: HLA-A*02:03; assay: IEDB peptide-MHC binding, purified MHC/competitive/radioactivity; filed as Kd, often an IC50 or EC50 that approximates it; bounds were set here for any values at or beyond the usual limits of such assays; details: source organism: Vaccinia virus WR
pKd: −log10 of the molar value.
pKd class ranges: bottom end = under 5, midrange = from 5 up to 7, top end = 7 and over

Please classify: KQIMECSRML
bottom end

Sort AFEFINSLLK into one of the categories.
bottom end

In plain terms, what class is STSNVITDQT ?
bottom end

Which category does the recorded pKd put NIREGTHVLL in?
midrange

Using the reported pKd, which band applies to LALWDSNFFT ?
bottom end

Form field 'band' for YVEHDPRLVA
bottom end

Looking at ELLEMKYAL , which class would you pick?
midrange

Lab note: sort YTEAAAATCA into the matching pKd band.
bottom end

Sort into band: DISSFYWSL
midrange

Band for MMNITRLEVI ?
top end

Classify this sequence: SINITPDDGL
midrange

Which class holds ILLILSCIFA ?
midrange

Returns: class label. Input: FVYVSVMNFI
top end

Which category fits this record: SITPNNLNKI
bottom end

Which bin should I file DMLKLFTHDI under?
top end

Class (by measured pKd) for ALALEQYGI
top end

Any idea which band ELPYVGDTSM is in?
bottom end

Band for YIEDELRRA ?
midrange

Band assignment needed for AAAATCALV please.
top end

Sort into band: SISSVLTIL
top end

State the class of the sequence shown: ETMYLTMKAI
top end

Band assignment needed for RLYDYFTRVT please.
midrange

For EATFIDVHI , which pKd bin applies?
midrange

Dear colleague, I would appreciate it if you could identify the bin for ILFILFFAYV and reply at your convenience.
midrange

Input IMFMLIFNV ; output its category
top end
